# experiment: amyloid nucleation score (Sup35N fusion, yeast selection) (log enrichment); library NNK2; higher = more nucleation; inactive = no reads after selection;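 note: zero at mode of non-aggregating sequences after 7 days selection at 30°C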
Is amyloid nucleation score at least -0.1? Then true. If not, false.

Challenge: Would you say `NADPNCLSK` shows amyloid nucleation score at minimum -0.1?
Response given: true

Challenge: And for `DYAIVSGVLLTQMQQLMCFV` ?
Response given: true

Challenge: And for `QLFTMDN` ?
Response given: false

Challenge: And for `RNSAHNLEMFYRGMWDGMCW` ?
Response given: false

Challenge: And for `GLTYKSDWSSFRSVYL` ?
Response given: false

Challenge: And for `LYEMVVM` ?
Response given: true

Challenge: And for `YSTEPSRHGIWNG` ?
Response given: false

Challenge: And for `VFKFLSAISPFKGD` ?
Response given: true

Challenge: And for `GARMHCGFCMGSWWYVFWVR` ?
Response given: true

Challenge: And for `WHLVGRRSID` ?
Response given: false

Challenge: And for `MVRIGELSPRCNSFV` ?
Response given: true

Challenge: And for `LCTGTCDTSAHVSSIYKFRD` ?
Response given: false

Challenge: And for `DRQTATSEMVSNRLISFRLV` ?
Response given: true

Challenge: And for `FRDANKGCIEKFVVTCDFRM` ?
Response given: true

Challenge: And for `SLLRLIFMLRRGDIHGYCRG` ?
Response given: true

Challenge: And for `VLGNGYPD` ?
Response given: false

Challenge: And for `TVSQFLFN` ?
Response given: false

Challenge: And for `AYASPCMQDLGRCLGRPRML` ?
Response given: true

Challenge: And for `QFHADSRQGFNVSEMLCWDG` ?
Response given: false

Challenge: And for `YVHVNIRYFYSLGDAVDKMP` ?
Response given: true

Challenge: And for `YWKVFFKAGWVVQSSAGMSA` ?
Response given: true

Challenge: And for `NTMLAFAKKSRMHFSLLLLV` ?
Response given: true

Challenge: And for `VHLVSLSLNKTLYDFLTGMG` ?
Response given: false

Challenge: And for `IARLASQSYLDMVADAEDTG` ?
Response given: true

Challenge: And for `AYMYTMGYRSHHVTEVVVIW` ?
Response given: true

Challenge: And for `IFDCCY` ?
Response given: false

Challenge: And for `FFEFRCWVMKGFWPLRMKDM` ?
Response given: true

Challenge: And for `VILMDMYHAGNSAMCLACGN` ?
Response given: false

====

# experiment: amyloid nucleation score (Sup35N fusion, yeast selection) (log enrichment); library NNK3; higher = more nucleation; inactive = no reads after selection
measurement_type: amyloid nucleation score

substance	amyloid nucleation score
GIGNCYLMLQTKIFEWFFSE	inactive
SYRASSGCHWREPHGLSDVR	0.897
YYAATPGSYLAGGRWITLF	0.219
YPKACVI	inactive
FVVIAYTEDTGDYRMVLTQW	inactive
KDVPPFFSSSFNWAGLRKDK	0.436

Kindly review the next substance as well.
Challenge: Item under review: `MYNLNVLNE` . Reported amyloid nucleation score?
Response given: inactive

====

# experiment: amyloid nucleation score (Sup35N fusion, yeast selection) (log enrichment); library NNK3; higher = more nucleation; inactive = no reads after selection
measurement_type: amyloid nucleation score

Study these solved cases before continuing.
substance	amyloid nucleation score
RGSCEFSSLECDTWSNRPSD	inactive
PATMFI	inactive
VFMIVRQEGSSDFFFDFSSV	1.42
DPTVVGWEYMVSRFCLSRFT	inactive

Challenge: Item under review: `GLTFCATRCRDWLEGWQY` . Reported amyloid nucleation score?
Response given: inactive

Challenge: And for `WCFHVKTSSLVLSRQWEPLS` ?
Response given: inactive

Challenge: And for `FLSCCKGCLCCCQRPLSIYY` ?
Response given: inactive

Challenge: And for `CLCSDTNVK` ?
Response given: inactive

Challenge: And for `VRSARRQAGELEGFYCLYQV` ?
Response given: inactive

====

# experiment: amyloid nucleation score (Sup35N fusion, yeast selection) (log enrichment); library NNK2; higher = more nucleation; inactive = no reads after selection
measurement_type: amyloid nucleation score
API doc: respond with a numeric literal and nothing else, no unit.

Challenge: Item under review: `CIFCYANVFAYFTTKGLFVQ` . Reported amyloid nucleation score?
Response given: -0.885

Challenge: And for `TCFTSCSG` ?
Response given: 0.263

Challenge: And for `STSSNGSEYHCLSI` ?
Response given: 1.05

Challenge: And for `WLLLYTCHLMISQISFHRKS` ?
Response given: -0.874

Challenge: And for `VRTWCAFYTVIRGWYRLLGS` ?
Response given: 0.231

Challenge: And for `YLMSFGPWGNYYFRSCKLWL` ?
Response given: 6.42

Challenge: And for `GFKAMRCLWSGVARSIVRDS` ?
Response given: -0.242

Challenge: And for `LAVLGIYDTLLYCHTVLYEI` ?
Response given: -0.302

====

# experiment: amyloid nucleation score (Sup35N fusion, yeast selection) (log enrichment); library NNK3; higher = more nucleation; inactive = no reads after selection
measurement_type: amyloid nucleation score

substance	amyloid nucleation score
CLPSVRQKGSWRLR	-0.338
GYYNSYQAELMTTACSDYVD	inactive
YQCFVKELYKECISHWARRK	inactive
SVERILLYGRCCFVRRA	0.403
FLFIHKLTCLSLVKWTGFLV	inactive

Kindly review the next substance as well.
Challenge: Item under review: `MCVYITYLNLWSDNSLRDRT` . Reported amyloid nucleation score?
Response given: 2.23

====

# experiment: amyloid nucleation score (Sup35N fusion, yeast selection) (log enrichment); library NNK3; higher = more nucleation; inactive = no reads after selection
measurement_type: amyloid nucleation score

Study these solved cases before continuing.
substance	amyloid nucleation score
RLFFGYCRMDVIFAPYISCV	inactive
YFILIYWSQCSMWYYVFKYG	inactive
ANKSTIGLFMRLPYCPGSN	-0.148
YLCYMEYVH	inactive
EWQSYYSKQRIGSGPFQLFC	0.179
FWLRNHFHSIAGICMFVGYW	inactive

Challenge: Item under review: `DWYMTVW` . Reported amyloid nucleation score?
Response given: inactive

Challenge: And for `VICFFTTNAEHLQFLV` ?
Response given: inactive

Challenge: And for `ADGWFEIFKGYSAPGAHSVL` ?
Response given: -0.48

Challenge: And for `LNILIFFCFYGVWKIWKIIS` ?
Response given: -0.665

Challenge: And for `VSAFFRSKG` ?
Response given: inactive

Challenge: And for `AASNTAFNYLSTRPIMRWLA` ?
Response given: inactive

Challenge: And for `LLHRTWVFNSELPWCRYVLK` ?
Response given: inactive

====

# experiment: amyloid nucleation score (Sup35N fusion, yeast selection) (log enrichment); library NNK3; higher = more nucleation; inactive = no reads after selection
measurement_type: amyloid nucleation score

Study these solved cases before continuing.
substance	amyloid nucleation score
TRNIMRSIMVPSTWRVFITV	inactive
CRDSWFWSV	inactive
ENNRCYYKMF	inactive
VRMRDFKENARRMVP	inactive
YTMLSVCGVYICYKVYSMCW	0.527

Challenge: Item under review: `YFLSDLQRKGSGLETVRVCR` . Reported amyloid nucleation score?
Response given: inactive

Challenge: And for `ILCFGLLN` ?
Response given: inactive

Challenge: And for `GSSSCY` ?
Response given: inactive

Challenge: And for `AIPSMSSRTLNQVSPIDPDL` ?
Response given: 0.706

Challenge: And for `RLTYIVCSA` ?
Response given: inactive

Challenge: And for `SIKLGILEMCKA` ?
Response given: inactive

Challenge: And for `MFQPFYFHNFYISCKLA` ?
Response given: 1.95

====

# experiment: amyloid nucleation score (Sup35N fusion, yeast selection) (log enrichment); library NNK2; higher = more nucleation; inactive = no reads after selection
Could you please report measured amyloid nucleation score for the items listed next?
API doc: respond with a numeric literal and nothing else, no unit.

Challenge: Item under review: `VFYELGLFLLNFVVLHASED` . Reported amyloid nucleation score?
Response given: 1.68

Challenge: And for `VCVLYLTSTGFLGQLY` ?
Response given: 2.74

Challenge: And for `WLRNWGYAFGPRQNYNCCRV` ?
Response given: -0.569

Challenge: And for `LSREFLNASL` ?
Response given: -0.947

Challenge: And for `ATSMVSSTRVHVHFDHVRVE` ?
Response given: 6.54

Challenge: And for `FYLFQWCK` ?
Response given: -0.889

Challenge: And for `VLSVGAGKYGLSLISSTTTI` ?
Response given: 1.28

Challenge: And for `VWDAEFSGPLRHEIMSGFVW` ?
Response given: 0.08

Challenge: And for `TFVGVLNQTNH` ?
Response given: 2.73

Challenge: And for `IGSWSTA` ?
Response given: 0.367
